- System: Salmonella Typhimurium strains; note: key: S- Sensitive; I- Intermediate; R- Resistant
- Format: cell-based
- Details: strain ST2
Assay Endpoint: Antibiotic Susceptibility testing

// solved cases for Antibiotic Susceptibility testing follow
O=C(N[C@H](CO)[C@H](O)c1ccc([N+](=O)[O-])cc1)C(Cl)Cl | R
CC(C)(O/N=C(\C(=O)N[C@@H]1C(=O)N2C(C(=O)[O-])=C(C[n+]3ccccc3)CS[C@H]12)c1csc(N)n1)C(=O)O | R
CCn1cc(C(=O)O)c(=O)c2ccc(C)nc21 | R
CN(C)[C@@H]1C(O)=C(C(N)=O)C(=O)[C@@]2(O)C(O)=C3C(=O)c4c(O)cccc4[C@@](C)(O)[C@H]3C[C@@H]12 | R
CC1(C)S[C@@H]2[C@H](NC(=O)[C@H](N)c3ccccc3)C(=O)N2[C@H]1C(=O)O | R

Fill in reported Antibiotic Susceptibility testing for this entry: O=C(O)c1cn(C2CC2)c2cc(N3CCNCC3)c(F)cc2c1=O
R

Fill in reported Antibiotic Susceptibility testing for this entry: C[C@H]1COc2c(N3CCN(C)CC3)c(F)cc3c(=O)c(C(=O)O)cn1c23
R

Fill in reported Antibiotic Susceptibility testing for this entry: C[C@@H](O)[C@H]1C(=O)N2C(C(=O)O)=C(SCCN=CN)C[C@H]12
S

Fill in reported Antibiotic Susceptibility testing for this entry: CO/N=C(\C(=O)N[C@@H]1C(=O)N2C(C(=O)[O-])=C(C[N+]3(C)CCCC3)CS[C@H]12)c1csc(N)n1
S

Fill in reported Antibiotic Susceptibility testing for this entry: CO/N=C(\C(=O)N[C@@H]1C(=O)N2C(C(=O)O)=C(COC(C)=O)CS[C@H]12)c1csc(N)n1
R

Fill in reported Antibiotic Susceptibility testing for this entry: Cc1nnc(SCC2=C(C(=O)O)N3C(=O)[C@@H](NC(=O)Cn4cnnn4)[C@H]3SC2)s1
S

====

- System: Salmonella Typhimurium strains; note: key: S- Sensitive; I- Intermediate; R- Resistant
- Type: cell-based
- Details: strain ST1
Assay Endpoint: Antibiotic Susceptibility testing

CO/N=C(\C(=O)N[C@@H]1C(=O)N2C(C(=O)[O-])=C(C[N+]3(C)CCCC3)CS[C@H]12)c1csc(N)n1 | S
CC1(C)S[C@@H]2[C@H](NC(=O)[C@H](N)c3ccccc3)C(=O)N2[C@H]1C(=O)O | R
C[C@H]1COc2c(N3CCN(C)CC3)c(F)cc3c(=O)c(C(=O)O)cn1c23 | R
